Reference for the values: ChEMBL document CHEMBL4680238

- Tested on: HCT-116
- assay.details: Cytotoxicity against human HCT-116 cells assessed as reduction in cell viability after 48 hrs by MTT assay
- Type: functional, cell-based
- assay.conditions: HCT-116, 48 h
Residues, ends and D or L forms follow the SMILES beside them. *: point of attachment. X2 = CC(=O)O[C@@]12CO[C@@H]1C[C@H](O)[C@@]1(C)C(=O)[C@H](O)C3=C(C)[C@@H](OC(=O)[C@H](OC(=O)OCc4ccc(N*)cc4)[C@@H](NC(=O)OC(C)(C)C(F)(F)F)c4ccccc4)C[C@@](O)([C@@H](OC(=O)c4cccc(F)c4)[C@H]21)C3(C)C; X1 = CC(=O)O[C@@]12CO[C@@H]1C[C@H](O)[C@@]1(C)C(=O)[C@H](O)C3=C(C)[C@@H](OC(=O)[C@H](OC(=O)OCc4ccc(N*)cc4)[C@@H](NC(=O)OC(C)(C)C)c4ccccc4)C[C@@](O)([C@@H](OC(=O)c4ccccc4)[C@H]21)C3(C)C; Fmoc = O=C(OCC1c2ccccc2-c2ccccc21)*
value.type: IC50 (nM)
# unit: nM | format: bare number

input: State IC50 on HCT-116. Entry: CC[C@H](C)[C@H](NC(=O)CNC(=O)[C@H](CC(C)C)NC(=O)[C@@H]1CCCN1C(=O)CNC(=O)OCC1c2ccccc2-c2ccccc21)C(=O)N[C@@H](C)C(=O)NCC(=O)N[C@@H](CCC(N)=O)C(=O)N[C@@H](CC(C)C)C(=O)Nc1ccc(COC(=O)O[C@@H](C(=O)O[C@H]2C[C@@]3(O)[C@@H](OC(=O)c4ccccc4)[C@@H]4[C@]5(OC(C)=O)CO[C@@H]5C[C@H](O)[C@@]4(C)C(=O)[C@H](O)C(=C2C)C3(C)C)[C@@H](NC(=O)OC(C)(C)C)c2ccccc2)cc1 (Fmoc-GPLGIAGQL-X1)
output: 9.8

input: State IC50 on HCT-116. Entry: CC(=O)NCC(=O)N1CCC[C@H]1C(=O)N[C@@H](CCC(N)=O)C(=O)NCC(=O)N[C@@H](CC(C)C)C(=O)N[C@@H](C)C(=O)NCC(=O)N[C@@H](CCC(N)=O)C(=O)N[C@@H](CC(C)C)C(=O)Nc1ccc(COC(=O)O[C@@H](C(=O)O[C@H]2C[C@@]3(O)[C@@H](OC(=O)c4cccc(F)c4)[C@@H]4[C@]5(OC(C)=O)CO[C@@H]5C[C@H](O)[C@@]4(C)C(=O)[C@H](O)C(=C2C)C3(C)C)[C@@H](NC(=O)OC(C)(C)C(F)(F)F)c2ccccc2)cc1 (Ac-GPQGLAGQL-X2)
output: 25.7

----------
- assay.details: Half life in Sprague-Dawley rat plasma t 50 ug/ml up to 72 hrs by RP-HPLC analysis
- Assay type: ADME, cell-free
- assay.conditions: dose 50 µg/ml
Residues, ends and D or L forms follow the SMILES beside them. *: point of attachment. X2 = CC(=O)O[C@@]12CO[C@@H]1C[C@H](O)[C@@]1(C)C(=O)[C@H](O)C3=C(C)[C@@H](OC(=O)[C@H](OC(=O)OCc4ccc(N*)cc4)[C@@H](NC(=O)OC(C)(C)C(F)(F)F)c4ccccc4)C[C@@](O)([C@@H](OC(=O)c4cccc(F)c4)[C@H]21)C3(C)C; X1 = CC(=O)O[C@@]12CO[C@@H]1C[C@H](O)[C@@]1(C)C(=O)[C@H](O)C3=C(C)[C@@H](OC(=O)[C@H](OC(=O)OCc4ccc(N*)cc4)[C@@H](NC(=O)OC(C)(C)C)c4ccccc4)C[C@@](O)([C@@H](OC(=O)c4ccccc4)[C@H]21)C3(C)C; Fmoc = O=C(OCC1c2ccccc2-c2ccccc21)*
value.type: half-life at 50 ug/ml (h)
# unit: h | format: bare number

input: Give half-life at 50 ug/ml for the following compound: CC[C@H](C)[C@H](NC(=O)CNC(=O)[C@H](CC(C)C)NC(=O)[C@@H]1CCCN1C(=O)CNC(=O)OCC1c2ccccc2-c2ccccc21)C(=O)N[C@@H](C)C(=O)NCC(=O)N[C@@H](CCC(N)=O)C(=O)N[C@@H](CC(C)C)C(=O)Nc1ccc(COC(=O)O[C@@H](C(=O)O[C@H]2C[C@@]3(O)[C@@H](OC(=O)c4cccc(F)c4)[C@@H]4[C@]5(OC(C)=O)CO[C@@H]5C[C@H](O)[C@@]4(C)C(=O)[C@H](O)C(=C2C)C3(C)C)[C@@H](NC(=O)OC(C)(C)C(F)(F)F)c2ccccc2)cc1 (Fmoc-GPLGIAGQL-X2)
output: 47.8

input: Give half-life at 50 ug/ml for the following compound: CC(=O)NCC(=O)N1CCC[C@H]1C(=O)N[C@@H](CCC(N)=O)C(=O)NCC(=O)N[C@@H](CC(C)C)C(=O)N[C@@H](C)C(=O)NCC(=O)N[C@@H](CCC(N)=O)C(=O)N[C@@H](CC(C)C)C(=O)Nc1ccc(COC(=O)O[C@@H](C(=O)O[C@H]2C[C@@]3(O)[C@@H](OC(=O)c4cccc(F)c4)[C@@H]4[C@]5(OC(C)=O)CO[C@@H]5C[C@H](O)[C@@]4(C)C(=O)[C@H](O)C(=C2C)C3(C)C)[C@@H](NC(=O)OC(C)(C)C(F)(F)F)c2ccccc2)cc1 (Ac-GPQGLAGQL-X2)
output: 24.1

input: Give half-life at 50 ug/ml for the following compound: CC(=O)NCC(=O)N1CCC[C@H]1C(=O)N[C@@H](CCC(N)=O)C(=O)NCC(=O)N[C@@H](CC(C)C)C(=O)N[C@@H](C)C(=O)NCC(=O)N[C@@H](CCC(N)=O)C(=O)N[C@@H](CC(C)C)C(=O)Nc1ccc(COC(=O)O[C@@H](C(=O)O[C@H]2C[C@@]3(O)[C@@H](OC(=O)c4ccccc4)[C@@H]4[C@]5(OC(C)=O)CO[C@@H]5C[C@H](O)[C@@]4(C)C(=O)[C@H](O)C(=C2C)C3(C)C)[C@@H](NC(=O)OC(C)(C)C)c2ccccc2)cc1 (Ac-GPQGLAGQL-X1)
output: 14

input: Give half-life at 50 ug/ml for the following compound: CC[C@H](C)[C@H](NC(=O)CNC(=O)[C@H](CC(C)C)NC(=O)[C@@H]1CCCN1C(=O)CNC(=O)OCC1c2ccccc2-c2ccccc21)C(=O)N[C@@H](C)C(=O)NCC(=O)N[C@@H](CCC(N)=O)C(=O)N[C@@H](CC(C)C)C(=O)Nc1ccc(COC(=O)O[C@@H](C(=O)O[C@H]2C[C@@]3(O)[C@@H](OC(=O)c4ccccc4)[C@@H]4[C@]5(OC(C)=O)CO[C@@H]5C[C@H](O)[C@@]4(C)C(=O)[C@H](O)C(=C2C)C3(C)C)[C@@H](NC(=O)OC(C)(C)C)c2ccccc2)cc1 (Fmoc-GPLGIAGQL-X1)
output: 35.9

----------
- assay.details: Half life of compound in PBS buffer at pH 7.4 at 50 ug/ml up to 72 hrs by RP-HPLC analysis
- Format: physicochemical
- assay.conditions: dose 50 µg/ml
Residues, ends and D or L forms follow the SMILES beside them. *: point of attachment. X2 = CC(=O)O[C@@]12CO[C@@H]1C[C@H](O)[C@@]1(C)C(=O)[C@H](O)C3=C(C)[C@@H](OC(=O)[C@H](OC(=O)OCc4ccc(N*)cc4)[C@@H](NC(=O)OC(C)(C)C(F)(F)F)c4ccccc4)C[C@@](O)([C@@H](OC(=O)c4cccc(F)c4)[C@H]21)C3(C)C; X1 = CC(=O)O[C@@]12CO[C@@H]1C[C@H](O)[C@@]1(C)C(=O)[C@H](O)C3=C(C)[C@@H](OC(=O)[C@H](OC(=O)OCc4ccc(N*)cc4)[C@@H](NC(=O)OC(C)(C)C)c4ccccc4)C[C@@](O)([C@@H](OC(=O)c4ccccc4)[C@H]21)C3(C)C; Fmoc = O=C(OCC1c2ccccc2-c2ccccc21)*
Would you kindly list half-life at 50 ug/ml for each of these molecules?

input: Give half-life at 50 ug/ml for the following molecule: CC[C@H](C)[C@H](NC(=O)CNC(=O)[C@H](CCSC)NC(=O)[C@@H]1CCCN1C(=O)CNC(C)=O)C(=O)N[C@@H](C)C(=O)NCC(=O)N[C@@H](CCC(N)=O)C(=O)N[C@@H](CC(C)C)C(=O)Nc1ccc(COC(=O)O[C@@H](C(=O)O[C@H]2C[C@@]3(O)[C@@H](OC(=O)c4ccccc4)[C@@H]4[C@]5(OC(C)=O)CO[C@@H]5C[C@H](O)[C@@]4(C)C(=O)[C@H](O)C(=C2C)C3(C)C)[C@@H](NC(=O)OC(C)(C)C)c2ccccc2)cc1 (Ac-GPMGIAGQL-X1)
output: > 72 h

input: Give half-life at 50 ug/ml for the following molecule: CC[C@H](C)[C@H](NC(=O)CNC(=O)[C@H](CCSC)NC(=O)[C@@H]1CCCN1C(=O)CNC(C)=O)C(=O)N[C@@H](C)C(=O)NCC(=O)N[C@@H](CCC(N)=O)C(=O)N[C@@H](CC(C)C)C(=O)Nc1ccc(COC(=O)O[C@@H](C(=O)O[C@H]2C[C@@]3(O)[C@@H](OC(=O)c4cccc(F)c4)[C@@H]4[C@]5(OC(C)=O)CO[C@@H]5C[C@H](O)[C@@]4(C)C(=O)[C@H](O)C(=C2C)C3(C)C)[C@@H](NC(=O)OC(C)(C)C(F)(F)F)c2ccccc2)cc1 (Ac-GPMGIAGQL-X2)
output: > 72 h

input: Give half-life at 50 ug/ml for the following molecule: CC[C@H](C)[C@H](NC(=O)CNC(=O)[C@H](CC(C)C)NC(=O)[C@@H]1CCCN1C(=O)CNC(=O)OCC1c2ccccc2-c2ccccc21)C(=O)N[C@@H](C)C(=O)NCC(=O)N[C@@H](CCC(N)=O)C(=O)N[C@@H](CC(C)C)C(=O)Nc1ccc(COC(=O)O[C@@H](C(=O)O[C@H]2C[C@@]3(O)[C@@H](OC(=O)c4cccc(F)c4)[C@@H]4[C@]5(OC(C)=O)CO[C@@H]5C[C@H](O)[C@@]4(C)C(=O)[C@H](O)C(=C2C)C3(C)C)[C@@H](NC(=O)OC(C)(C)C(F)(F)F)c2ccccc2)cc1 (Fmoc-GPLGIAGQL-X2)
output: > 72 h

input: Give half-life at 50 ug/ml for the following molecule: CC(=O)NCC(=O)N1CCC[C@H]1C(=O)N[C@@H](CCC(N)=O)C(=O)NCC(=O)N[C@@H](CC(C)C)C(=O)N[C@@H](C)C(=O)NCC(=O)N[C@@H](CCC(N)=O)C(=O)N[C@@H](CC(C)C)C(=O)Nc1ccc(COC(=O)O[C@@H](C(=O)O[C@H]2C[C@@]3(O)[C@@H](OC(=O)c4cccc(F)c4)[C@@H]4[C@]5(OC(C)=O)CO[C@@H]5C[C@H](O)[C@@]4(C)C(=O)[C@H](O)C(=C2C)C3(C)C)[C@@H](NC(=O)OC(C)(C)C(F)(F)F)c2ccccc2)cc1 (Ac-GPQGLAGQL-X2)
output: 48.3 h
